Molecular target: 11 β-HSD type 2 (Rattus norvegicus)
Construct: Both the kidneys and livers were homogenised on ice in PBS- sucrose buffer; tissue Harlan Olac, Bicester, Oxon, UK (rats); host or cells: rat kidney homogenate supernatant (Wistar rat)
Assay: biochemical
Settings: read-out: % […]→E ± SD, inhibitor 10 μM; rat kidney cytosol 150 μL, 60 min, 37° C.; cortisol (F) to cortisone (E); vs control without inhibitor; means n=2; read-out: % INHIBITION F→E ± SD
Each entry below carries its recorded inhibition at 10 µM.
// note: answer is a bare numeric in %

compound	inhibition at 10 µM / %
CO[C@H]1CC[C@@]2(C)C(CC[C@]3(C)C2C(=O)C=C2[C@@H]4C[C@@](C)(C(=O)O)CC[C@]4(C)CC[C@]23C)C1(C)C (some centres unmarked) [STX195a]	90.3
CCOC(=O)[C@H](C)NC(=O)[C@@]1(C)CC[C@]2(C)CC[C@]3(C)C(=CC(=O)[C@@H]4[C@@]5(C)CC[C@H](O)C(C)(C)C5CC[C@]43C)[C@@H]2C1 (some centres unmarked) [STX 369]	35.4

Item COC(=O)[C@@]1(C)CC[C@]2(C)CC[C@]3(C)C(=CC(=O)C4[C@@]5(C)CC[C@H](O)C(C)(C)C5CC[C@]43C)[C@@H]2C1 (some centres unmarked) [STX195] has what recorded inhibition at 10 µM?
105

Here is the next compound: CC(O)C1CCC2C3CCC4=C[C@@H](O)CC[C@]4(C)C3[C@H](O)C[C@]12C (stereo in doubt) [STX125, 3,11,20-Trihydroxyproqesterone]
72.2

====

Target: 11 β-HSD type 2 (Rattus norvegicus)
Construct: Both the kidneys and livers were homogenised on ice in PBS- sucrose buffer; tissue Harlan Olac, Bicester, Oxon, UK (rats); host or cells: rat kidney homogenate supernatant (Wistar rat)
Assay: biochemical
Settings: read-out: % […]→E ± SD, inhibitor 10 μM; rat kidney cytosol 150 μL, 60 min, 37° C.; cortisol (F) to cortisone (E); vs control without inhibitor; means n=2; read-out: % INHIBITION F→E ± SD
Each entry below carries its recorded inhibition at 10 µM.
// note: answer is a bare numeric in %

molecule	unitSymbol	inhibition at 10 µM
COC(=O)[C@@]1(C)CC[C@]2(C)CC[C@]3(C)C(=CC(=O)[C@@H]4[C@@]5(C)CC[C@H](OCc6ccccc6)C(C)(C)C5CC[C@]43C)[C@@H]2C1 (some centres unmarked)	%	17
CCOC(=O)[C@@]1(C)CC[C@]2(C)CC[C@]3(C)C(=CC(=O)C4[C@@]5(C)CC[C@H](O)C(C)(C)C5CC[C@]43C)[C@@H]2C1 (some centres unmarked)	%	97.5
CC(O)C1CCC2C3CCC4=C[C@@H](O)CC[C@]4(C)C3[C@H](OCc3ccccc3)C[C@]12C (stereo in doubt) [STX-126, 11α-benzyloxy-3,20-dihydroxyprogesterone]	%	13.5
CC1(C)C2CC[C@]3(C)C([C@H](O)C=C4[C@@H]5C[C@@](C)(CO)CC[C@]5(C)CC[C@]43C)[C@@]2(C)CC[C@@H]1O (some centres unmarked)	%	94.4

// next entry
Request: inhibition at 10 µM, test system 11 β-HSD type 2 (Rattus norvegicus), entry CCO[C@H]1CC[C@@]2(C)C(CC[C@]3(C)C2C(=O)C=C2[C@@H]4C[C@@](C)(C(=O)O)CC[C@]4(C)CC[C@]23C)C1(C)C (stereo partly drawn) [STX196a, 3β-Ethoxy-11-oxo-18β-glycerrhetinic acid]
93.9

====

Each entry below carries its recorded melting point.

compound	melting point
CC1(C)C2CC[C@]3(C)C(C(=O)C=C4[C@@H]5C[C@@](C)(C(=O)OCCc6ccccc6)CC[C@]5(C)CC[C@]43C)[C@@]2(C)CC[C@@H]1O (stereo partly drawn)	171 to 172 °C
CC(C)(C)OC(=O)[C@@]1(C)CC[C@]2(C)CC[C@]3(C)C(=CC(=O)C4[C@@]5(C)CC[C@H](O)C(C)(C)C5CC[C@]43C)[C@@H]2C1 (stereo partly drawn)	171 to 174 °C
CC1(C)C2CC[C@]3(C)C(CC=C4[C@@H]5C[C@@](C)(C(=O)OCC6CCCCC6)CC[C@]5(C)CC[C@]43C)[C@@]2(C)CC[C@@H]1O (stereo partly drawn)	133 to 134 °C
CC(O)C1CCC2C3CCC4=C[C@@H](O)CC[C@]4(C)C3[C@H](OCc3ccccc3)C[C@]12C (stereo in doubt) [STX-126, 11α-benzyloxy-3,20-dihydroxyprogesterone]	117 to 118 °C

Item CC1(C)C2CC[C@]3(C)C(CC=C4[C@@H]5C[C@@](C)(C(=O)OCCc6ccccc6)CC[C@]5(C)CC[C@]43C)[C@@]2(C)CC[C@@H]1O (stereo partly drawn) has what recorded melting point?
153 to 155 °C

Here is the next compound: CC1(C)C2CC[C@]3(C)C(C(=O)C=C4[C@@H]5C[C@@](C)(C(=O)OCCCc6ccccc6)CC[C@]5(C)CC[C@]43C)[C@@]2(C)CC[C@H]1O (stereo partly drawn)
114 to 116 °C

Here is the next compound: CO[C@@H]1C[C@]2(C)C(C(C)=O)CCC2C2CCC3=CC(=O)CC[C@]3(C)C21 (stereo partly drawn) [STX193, 11α-Methoxyprogesterone]
164 to 165 °C

====

Biological target: 11 β-HSD type 2 (Rattus norvegicus)
Construct: Both the kidneys and livers were homogenised on ice in PBS- sucrose buffer; tissue Harlan Olac, Bicester, Oxon, UK (rats); host or cells: rat kidney homogenate supernatant (Wistar rat)
Sequence (P50233 1-400): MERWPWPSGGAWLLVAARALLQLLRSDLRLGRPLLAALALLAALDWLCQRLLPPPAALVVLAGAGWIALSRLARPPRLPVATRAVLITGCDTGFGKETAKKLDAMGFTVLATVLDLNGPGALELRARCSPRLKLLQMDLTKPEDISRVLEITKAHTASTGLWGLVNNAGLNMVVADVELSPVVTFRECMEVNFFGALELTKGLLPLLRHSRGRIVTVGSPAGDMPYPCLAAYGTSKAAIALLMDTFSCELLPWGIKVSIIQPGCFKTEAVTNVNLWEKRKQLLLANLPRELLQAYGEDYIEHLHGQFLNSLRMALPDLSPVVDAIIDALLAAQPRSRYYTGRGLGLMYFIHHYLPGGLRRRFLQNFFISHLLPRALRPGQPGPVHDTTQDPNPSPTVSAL
Assay: biochemical
Settings: read-out: % […]→E ± SD, inhibitor 10 μM; rat kidney cytosol 150 μL, 60 min, 37° C.; cortisol (F) to cortisone (E); vs control without inhibitor; means n=2; read-out: % INHIBITION F→E ± SD
measuredEndpoint: inhibition at 10 µM (%)
// note: answer is a bare numeric in %

Known results for compounds:
compound	unitSymbol	measuredResult
C[C@]12CCC(=O)C=C1CCC1C2C(O)C[C@]2(C)C(=O)CCC12 (stereo partly drawn) [11β-OH-Androstenedione, reference compound]	%	40.9
COC(=O)[C@@]1(C)CC[C@]2(C)CC[C@]3(C)C(=CC(=O)C4[C@@]5(C)CCC(=O)C(C)(C)C5CC[C@]43C)[C@@H]2C1 (stereo partly drawn) [STX194, Methyl 3-oxo-18β-glycerrhetate]	%	75
C[C@H](CCC(=O)O)[C@H]1CC[C@H]2[C@@H]3CC[C@@H]4C[C@H](O)CC[C@]4(C)[C@H]3C[C@H](O)[C@]12C [Deoxycholic acid, reference compound]	%	-1.1
COC(=O)[C@@]1(C)CC[C@]2(C)CC[C@]3(C)C(=CC(=O)[C@@H]4[C@@]5(C)CC[C@H](OCc6ccc(C(C)(C)C)cc6)C(C)(C)C5CC[C@]43C)[C@@H]2C1 (stereo partly drawn)	%	26.4
CC1(C)C2CC[C@]3(C)C(C(=O)C=C4[C@@H]5C[C@@](C)(C(=O)OCc6ccccc6)CC[C@]5(C)CC[C@]43C)[C@@]2(C)CC[C@@H]1O (stereo partly drawn)	%	94.8

Request: inhibition at 10 µM, test system 11 β-HSD type 2 (Rattus norvegicus), entry CC1(C)C(O)CC[C@@]2(C)C1CC[C@]1(C)C2CC=C2[C@@H]3C[C@@](C)(C(=O)OCc4ccccc4)CC[C@]3(C)CC[C@]21C (stereo partly drawn)
33.8

Here is the next compound: CC(=O)O[C@H]1CC[C@@]2(C)C(CC[C@]3(C)C2CC=C2[C@@H]4C[C@@](C)(C(=O)OCc5ccccc5)CC[C@]4(C)CC[C@]23C)C1(C)C (stereo partly drawn)
13.6

Here is the next compound: CC(=O)C1CCC2C3CCC4=CC(=O)CC[C@]4(C)C3CC[C@]12C (stereo partly drawn) [Progesterone, reference compound]
68.5

Here is the next compound: CC1(C)C2CC[C@]3(C)C(C(=O)C=C4[C@@H]5C[C@@](C)(C(=O)OCC6CCCCC6)CC[C@]5(C)CC[C@]43C)[C@@]2(C)CC[C@@H]1O (stereo partly drawn)
33

Reference source: patent US20040147494A1
